Target: F508delCFTR (Homo sapiens, UniProt P13569, DEL508-508)
Construct: expressed in transfected cells; host or cells: CFBE41o- human lung-derived epithelial cells (CFBE41o-F508delCFTR-HRP), doxycycline-inducible
Sequence (P13569 with tags, fused parts or gaps DEL508-508): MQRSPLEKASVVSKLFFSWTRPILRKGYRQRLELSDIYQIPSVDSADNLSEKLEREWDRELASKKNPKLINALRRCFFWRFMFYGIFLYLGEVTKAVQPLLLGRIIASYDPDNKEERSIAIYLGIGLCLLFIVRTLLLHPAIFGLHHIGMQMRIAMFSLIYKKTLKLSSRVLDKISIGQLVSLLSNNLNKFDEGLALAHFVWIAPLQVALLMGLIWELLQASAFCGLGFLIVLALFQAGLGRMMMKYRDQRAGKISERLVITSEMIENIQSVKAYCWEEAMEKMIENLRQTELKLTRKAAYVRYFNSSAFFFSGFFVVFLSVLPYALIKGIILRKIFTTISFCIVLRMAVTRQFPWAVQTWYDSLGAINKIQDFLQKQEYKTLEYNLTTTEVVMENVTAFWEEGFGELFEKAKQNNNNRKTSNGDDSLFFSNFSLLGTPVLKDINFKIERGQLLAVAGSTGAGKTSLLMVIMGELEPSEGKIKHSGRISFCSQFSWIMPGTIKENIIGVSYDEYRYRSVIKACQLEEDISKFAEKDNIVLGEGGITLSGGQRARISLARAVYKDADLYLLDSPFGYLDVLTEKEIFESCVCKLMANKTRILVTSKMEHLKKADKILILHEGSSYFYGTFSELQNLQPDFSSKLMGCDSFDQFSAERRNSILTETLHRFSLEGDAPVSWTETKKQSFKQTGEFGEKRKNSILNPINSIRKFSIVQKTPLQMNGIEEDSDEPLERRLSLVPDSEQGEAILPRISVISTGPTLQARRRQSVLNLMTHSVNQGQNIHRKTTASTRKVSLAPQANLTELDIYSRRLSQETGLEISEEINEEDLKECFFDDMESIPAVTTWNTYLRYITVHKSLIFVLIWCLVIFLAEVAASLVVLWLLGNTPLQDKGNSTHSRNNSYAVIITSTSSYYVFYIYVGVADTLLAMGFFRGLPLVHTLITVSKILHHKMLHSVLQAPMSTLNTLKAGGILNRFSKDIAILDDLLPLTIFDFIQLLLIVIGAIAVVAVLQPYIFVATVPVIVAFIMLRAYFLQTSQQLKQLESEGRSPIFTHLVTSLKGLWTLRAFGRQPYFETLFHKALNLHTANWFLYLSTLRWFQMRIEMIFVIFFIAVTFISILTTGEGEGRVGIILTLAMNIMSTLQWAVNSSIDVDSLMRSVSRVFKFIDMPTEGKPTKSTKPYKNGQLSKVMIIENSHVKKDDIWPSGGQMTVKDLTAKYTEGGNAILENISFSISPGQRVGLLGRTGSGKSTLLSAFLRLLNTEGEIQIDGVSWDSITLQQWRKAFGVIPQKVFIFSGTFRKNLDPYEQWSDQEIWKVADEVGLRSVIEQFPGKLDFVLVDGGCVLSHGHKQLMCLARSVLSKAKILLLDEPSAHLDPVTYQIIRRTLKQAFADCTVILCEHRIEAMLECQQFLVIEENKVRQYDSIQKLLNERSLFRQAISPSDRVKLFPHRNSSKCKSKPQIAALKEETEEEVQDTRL
Test: Cell Surface Expression-Horse Radish Peroxidase (CSE-HRP) assay, test compound without co-corrector
Type: cell-based
Settings: test compound without co-corrector
The following compounds are listed with their measured EC50 values.
Measurement Kind: EC50

• COCc1ccc(OC)c2c1CCC2C(=O)NS(=O)(=O)c1cccc2ccccc12 (stereo not drawn) = 3 to 10 µM
• Cc1ccccc1S(=O)(=O)NC(=O)[C@@H]1CCCc2ccccc21 = 3 to 10 µM
• COc1cccc2c1CCC2C(=O)NS(=O)(=O)c1cc(C(=O)Nc2c(C)cccc2C)c(O)cc1Cl (stereo not drawn) = ≥ 10 µM

---

Biological target: F508delCFTR (Homo sapiens, UniProt P13569, DEL508-508)
Construct: expressed in transfected cells; host or cells: CFBE41o- human lung-derived epithelial cells (CFBE41o-F508delCFTR-HRP), doxycycline-inducible
Test: Cell Surface Expression-Horse Radish Peroxidase (CSE-HRP) assay, test compound with co-corrector;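 further: percent of 2 µM positive control corrector over DMSO; co-corrector is that same compound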
Assay type: cell-based
Details: maximum at any tested concentration, normalized to on-plate positive control, with 2 μM co-corrector
Measurement Kind: Maximum % activity (with co-corrector)

- CCC1(C(=O)NS(=O)(=O)C2CCCCC2)CCc2c(Cl)cccc21 (stereo not drawn) [III-136]: + (<150)
- Cc1ccccc1S(=O)(=O)NC(=O)C1CCc2c(-c3c(C)nn(C)c3C)cccc21 (stereo not drawn) [III-105]: + (<150)

All values here come from patent US20180244611A1.
